- experimental-protocol: in vitro
- recorded-conditions: human, hela cells, % viability
assay-readout: viability at 28.5 h, 10 µM (%)
One number for each entry, in %.

- molecule: "c1cncc(COc2nccnc2N2CCN(CCN3CCOCC3)CC2)c1"
  viability at 28.5 h, 10 µM / %: 104
- molecule: "COc1ccc(C)cc1S(=O)(=O)N(C)CC(=O)Nc1cccc(C(C)=O)c1"
  viability at 28.5 h, 10 µM / %: 102
- molecule: "CCOC(=O)CSc1nc(-c2ccc3c(c2)OCO3)ccc1C#N"
  viability at 28.5 h, 10 µM / %: 87.6

Dear colleague, could you please provide viability at 28.5 h, 10 µM for the molecules listed below?
1. COc1ncc(-c2cncc(NCCO)n2)c(OC)n1
2. CC(C)c1csc(NC(=O)CC2CCN(S(=O)(=O)c3cccc(F)c3)CC2)n1

-- reply
1. 106
2. 83.4

Dear colleague, could you please provide viability at 28.5 h, 10 µM for the molecules listed below?
1. O=C(O)c1cc(-c2ccccc2)c2c(=O)[nH][nH]c2n1
2. Cc1nn(-c2ccccc2)c(O)c1Cc1c(Cl)cccc1Cl
3. CC(C)N1CCC(N(C)Cc2nc3ccccc3[nH]2)CC1
4. O=C(O)CCC(=O)NCc1ccc(-c2nccnc2NS(=O)(=O)c2ccc(O)cc2)cc1
5. O=C(O)COc1ccc(S(=O)(=O)N2CCCCC2)cc1Cl
6. O=C(O)C1CCCN(C(=O)Cc2csc(COc3ccc(Cl)cc3)n2)C1 (centres unmarked)

-- reply
1: 105; 2: 98.1; 3: 105; 4: 106; 5: 105; 6: 88.1

Dear colleague, could you please provide viability at 28.5 h, 10 µM for the molecules listed below?
1. CCN(CC)C(=O)c1ccc(-c2ccc(NC(C)=O)cc2)nc1
2. CCc1nc(C)ccc1O [CBK026535C]
3. CN(C)CCN(Cc1ccncc1)Cc1cc(F)ccc1F
4. O=C1C2N=NN(Cc3ccccc3)C2C(=O)N1C1CCCCC1 (centres unmarked)

-- reply
1. 101
2. 91
3. 88
4. 115

---

- experimental-protocol: in vitro
- recorded-conditions: human, hela cells, % viability
What viability at 28.5 h, 10 µM was measured for each of the following?
Give bare numbers, in %.

A selection of reference data follows.
- molecule: "O=C1C(n2c(=O)[nH]c3ccccc3c2=O)CCN1CC(F)(F)F (stereo not drawn)"
  viability at 28.5 h, 10 µM, %: 104
- molecule: "CCc1nc2cc(NC(=O)c3csc(C(C)=O)c3)ccc2n1C"
  viability at 28.5 h, 10 µM, %: 105
- molecule: "O=C(Nc1ccccc1N1CCN(C(=O)c2ccccc2)CC1)c1cccnc1"
  viability at 28.5 h, 10 µM, %: 100
- molecule: "N#CCCCN1CCC(Oc2nccnc2OC2CCCCC2)CC1 [CBK082871T]"
  viability at 28.5 h, 10 µM, %: 101
- molecule: "COc1cc(C2N(Cc3ccccc3)CCCN2Cc2ccccc2)c([N+](=O)[O-])cc1OC"
  viability at 28.5 h, 10 µM, %: 88.2
- molecule: "Cc1c(C(=O)N(C)C2CCNCC2)nnn1-c1ccc2ncccc2c1 [CBK306500C]"
  viability at 28.5 h, 10 µM, %: 84.8

Dear colleague, could you please provide viability at 28.5 h, 10 µM for the molecules listed below?
1. COC(=O)c1ccccc1N1C(=O)c2cccc([N+](=O)[O-])c2C1=O
2. COc1ccc(Sc2ncccc2C(F)(F)F)cc1OC
3. Cc1cc(C)c(S(=O)(=O)N(CC(=O)O)C2CCCCC2)c(C)c1

-- reply
1: 95.7; 2: 100; 3: 92.6
